Hey, just so you know, these numbers are from patent US12565517B2.

Biological target: CTLA-4 protein (Recombinant Human CTLA4-Fc chimera) (Homo sapiens)
Construct: purchased R&D systems
Experiment: Affinity measurement of MBP fusion clone by BLItz system (biotinylated CTLA-4 on SA sensor chip)
Assay type: binding
Bridges are numbered along the chain shown (N, C = ends). Where no end group is shown, it is not given here.
READOUT_NAME: pKd
The meaning of pKd here: minus log10 of the concentration in molar units.

Item: CMHPFLLVVSHHFC (disulfide 1-14 (inferred); not fully specified (N-terminus)) [H12SSI-Ctla4-3-02] | pKd: 5.41

* * *

Biological target: CTLA-4 (Homo sapiens)
Sequence (P16410 36-223): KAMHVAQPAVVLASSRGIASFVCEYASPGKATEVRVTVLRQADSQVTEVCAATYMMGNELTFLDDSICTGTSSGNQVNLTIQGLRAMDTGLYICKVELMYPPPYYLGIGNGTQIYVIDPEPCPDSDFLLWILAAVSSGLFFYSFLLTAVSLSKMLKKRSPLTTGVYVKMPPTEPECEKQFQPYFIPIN
Assay: ELISA binding of clones after Affinity Maturation with random library (Tables 10, 11)
Settings: CTLA-4 binding ELISA of clones after Affinity Maturation from random (NNS) library; signal/noise ratio; clones of 4th or 5th round
READOUT_NAME: ELISA S/N(SA)
Response field accepts a number only; no unit should be typed.

C4m3127-4th-NNS6-19 (GGCMHPSLPIWSWHFCPH; C4m3127-4th-NNS6-19) [Clone C4m3127-4th-NNS6-19] | 4.1

Item C4m3127-4th-NNS6-12 (GGCSHPFLPIRSRHFCPF; C4m3127-4th-NNS6-12) [Clone C4m3127-4th-NNS6-12] was tested on CTLA-4 (Homo sapiens); the reported ELISA S/N(SA) is 15.8

Let me check: C4m3127-4th-NNS6-83 (GGCRHPFLPIFSKHFCEL; C4m3127-4th-NNS6-83) [Clone C4m3127-4th-NNS6-83] , system CTLA-4 (Homo sapiens), measured ELISA S/N(SA) is 20.7

Known value: CTLA-4 (Homo sapiens) ELISA S/N(SA) of the substance C4m#19-5th2w-NNS6-51 (GGCRHPFLPIVSLHFCPF; C4m#19-5th2w-NNS6-51) equals 15.8

Hey, CTLA-4 (Homo sapiens) data for C4m#19-5th4w-NN6-89 (GGCMHPFLPIISQHFCAF; C4m#19-5th4w-NN6-89) : ELISA S/N(SA) came out at 8.3

Entry C4m#19-5th2w-NNS6-8 (GGCRHPFLPIFSLHFCAR; C4m#19-5th2w-NNS6-8) : ELISA S/N(SA) on CTLA-4 (Homo sapiens) = 16.5

// assay CTLA-4 (Homo sapiens), entry C4m#19-5th4w-NN6-6 (GGCMHPFLPIKSSHFCRK; C4m#19-5th4w-NN6-6) , ELISA S/N(SA) value = 16.1

Lab note: substance C4m#19-5th2w-NNS6-66 (GGCRHPFLPIFSVHFCPF; C4m#19-5th2w-NNS6-66) tested on CTLA-4 (Homo sapiens); recorded ELISA S/N(SA) was 4.4
